tested on: Tetranychus urticae; assay: Tetranychus urticae test (OP-resistant/spray treatment); type: in vivo, greenhouse red spider mite (Tetranychus urticae); conditions: Tetranychus urticae, 144 h, read-out: Kill in % after 6 d
assay metric: pest or weed control at 4 g/ha (%)

compound: Cc1nn(C)c(Oc2ccccc2)c1C=NOCc1ccc(C(=O)OC(C)(C)C)cc1 [fenpyroximate]
assay metric: pest or weed control at 4 g/ha
units label: %
reported: 60

compound: CCc1nn(C)c(C(=O)NCc2ccc(C(C)(C)C)cc2)c1Cl
assay metric: pest or weed control at 4 g/ha
units label: %
reported: 40

compound: Cc1c(COC(=O)C2C(/C=C(\Cl)C(F)(F)F)C2(C)C)cccc1-c1ccccc1 (centres unmarked)
assay metric: pest or weed control at 4 g/ha
units label: %
reported: 40

compound: CC1(C)[C@H](C(=O)O[C@H](C#N)c2cccc(Oc3ccccc3)c2)[C@@H]1C=C(Br)Br
assay metric: pest or weed control at 4 g/ha
units label: %
reported: 0

compound: CC(c1ccc(C(F)(F)F)nc1)S(C)(=O)=NC#N (centres unmarked)
assay metric: pest or weed control at 4 g/ha
units label: %
reported: 0

====

system: Myzus persicae; test: Myzus persicae test (spray treatment of infested cabbage leaves); assay type: in vivo, green peach aphid (Myzus persicae); conditions: Myzus persicae, 24 h, read-out: Kill in % after 1 d
Measured pest or weed control at 0.16 g/ha by item

compound: CNC(=O)c1cc(C#N)cc(C)c1NC(=O)c1cc(Br)nn1-c1ncccc1Cl [cyazypyr, Cyantraniliprole]
units label: %
pest or weed control at 0.16 g/ha: 0
//
compound: CC(c1ccc(C(F)(F)F)nc1)S(C)(=O)=NC#N (stereo not shown) [compound (I-8)]
units label: %
pest or weed control at 0.16 g/ha: 0
//
compound: O=[N+]([O-])/N=C1\NCCN1Cc1ccc(Cl)nc1 [imidacloprid]
units label: %
pest or weed control at 0.16 g/ha: 50
//
compound: N#C/N=C1\SCCN1Cc1ccc(Cl)nc1 [thiacloprid]
units label: %
pest or weed control at 0.16 g/ha: 0

====

pest or weed control at 0.8 g/ha listing for selected compounds.
system: Spodoptera frugiperda; test: Spodoptera frugiperda larvae test (sprayed cabbage leaves); assay type: in vivo, army worm (Spodoptera frugiperda) larvae; conditions: Spodoptera frugiperda, 144 h, read-out: Kill in % after 6 d
assay metric: pest or weed control at 0.8 g/ha (%)

compound: O=C(NC(=O)c1c(F)cccc1F)Nc1ccc(Oc2ccc(C(F)(F)F)cc2Cl)cc1F
assay metric: pest or weed control at 0.8 g/ha
reported: 67

compound: Cc1c(COC(=O)C2C(/C=C(\Cl)C(F)(F)F)C2(C)C)cccc1-c1ccccc1 (stereo not shown)
assay metric: pest or weed control at 0.8 g/ha
reported: 0

compound: O=C(NC(=O)c1ccccc1Cl)Nc1ccc(OC(F)(F)F)cc1
assay metric: pest or weed control at 0.8 g/ha
reported: 33

compound: CC1(C)C(C=C(Cl)Cl)C1C(=O)OC(C#N)c1cccc(Oc2ccccc2)c1 (stereo not shown)
assay metric: pest or weed control at 0.8 g/ha
reported: 50

compound: Cc1cc(C(F)(C(F)(F)F)C(F)(F)F)ccc1NC(=O)c1cccc(I)c1C(=O)NC(C)(C)CS(C)(=O)=O [flubendiamid, flubendiamide]
assay metric: pest or weed control at 0.8 g/ha
reported: 67

compound: CC1(C)C(/C=C(\Cl)C(F)(F)F)C1C(=O)OC(C#N)c1cccc(Oc2ccccc2)c1 (stereo not shown)
assay metric: pest or weed control at 0.8 g/ha
reported: 67

compound: CC(c1ccc(C(F)(F)F)nc1)S(C)(=O)=NC#N (stereo not shown)
assay metric: pest or weed control at 0.8 g/ha
reported: 0

====

test system: Phaedon cochleariae; assay: Phaedon cochleariae larvae test (sprayed cabbage leaves); type: in vivo, mustard beetle (Phaedon cochleariae) larvae; details: Phaedon cochleariae, 144 h, single active compound, 20 g/ha, 6 d; read-out: Kill in % after 6 d
pest or weed control at 20 g/ha by entry:

molecule: O=[N+]([O-])/N=C1\NCCN1Cc1ccc(Cl)nc1 [imidacloprid]
system: Phaedon cochleariae
pest or weed control at 20 g/ha / %: 50

molecule: Cc1cc(C(F)(C(F)(F)F)C(F)(F)F)ccc1NC(=O)c1cccc(I)c1C(=O)NC(C)(C)CS(C)(=O)=O [flubendiamid, flubendiamide]
system: Phaedon cochleariae
pest or weed control at 20 g/ha / %: 50

molecule: Nc1nc(N)nc(NC2CC2)n1 [cyromazine]
system: Phaedon cochleariae
pest or weed control at 20 g/ha / %: 0

molecule: N#C/N=C1\SCCN1Cc1ccc(Cl)nc1 [thiacloprid]
system: Phaedon cochleariae
pest or weed control at 20 g/ha / %: 50

molecule: CC(c1ccc(Cl)nc1)S(C)(=O)=NC#N (stereo not drawn) [compound (I-5)]
system: Phaedon cochleariae
pest or weed control at 20 g/ha / %: 0

molecule: CC(c1ccc(C(F)(F)F)nc1)S(C)(=O)=NC#N (stereo not drawn) [compound (I-8)]
system: Phaedon cochleariae
pest or weed control at 20 g/ha / %: 17

molecule: COc1cccc(C(=O)NN(C(=O)c2cc(C)cc(C)c2)C(C)(C)C)c1C [methoxyfenozide]
system: Phaedon cochleariae
pest or weed control at 20 g/ha / %: 0

molecule: CCc1nn(C)c(C(=O)NCc2ccc(C(C)(C)C)cc2)c1Cl [tebufenpyrad]
system: Phaedon cochleariae
pest or weed control at 20 g/ha / %: 0

molecule: CC(C)c1cc(Oc2ccccc2)cc(C(C)C)c1NC(=S)NC(C)(C)C [diafenthiuron]
system: Phaedon cochleariae
pest or weed control at 20 g/ha / %: 0

The measurements presented in this section are drawn from patent US20110124588A1.
